Reference source for all entries: paper PMC4360782

Target: T1, TerR35-138 (Aspergillus terreus SBUG844, UniProt Q0D1P5 35-138)
T1 sequence: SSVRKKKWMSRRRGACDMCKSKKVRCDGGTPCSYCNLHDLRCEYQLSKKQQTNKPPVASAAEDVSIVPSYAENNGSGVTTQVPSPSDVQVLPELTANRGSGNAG
Test: SPR; molar ratio 1.74; SPR (Biacore 2000, SA-coated CM3 chip): 10 mM HEPES pH 7.4, 150 mM NaCl, 0.005% P20, 5 mM beta-mercaptoethanol, 1 uM ZnCl2, 25 C; protein 12.5-6400 nM; 1:1 model with mass transport
Conditions: protein: recombinant; (pET-29a; theoretical mass 11.35 kDa); label: biotin on one strand; 18 bp duplex
outcomeMeasure: Kd (nM)
Numbers only, in nM.

Need Kd, item BS3 (dsDNA) DNA 1: GAGACGGAAACTCGGGTT DNA 2: AACCCGAGTTTCCGTCTC
676
